assay: Solubility test; assay type: physicochemical; conditions: JP 1st fluid, pH 1.2, simulated gastric fluid, kinetic from dmso stock; read-out: JP1
# solubility kinetic at 1 h values compiled below

{"Item Smiles": "Cc1cc(C#N)cnc1C(=O)Nc1ccc(F)c([C@@]2(C)N=C(N)S[C@H](C)[C@@H]2F)c1", "solubility kinetic at 1 h": "> 50 µM"}
{"Item Smiles": "C[C@H]1SC(N)=N[C@](C)(c2cc(NC(=O)c3ncc(OCC(F)(F)F)cn3)ccc2F)[C@H]1F", "solubility kinetic at 1 h": "> 50 µM"}
{"Item Smiles": "CC[C@H]1SC(N)=N[C@](C)(c2cc(NC(=O)c3cnc(OCF)cn3)ccc2F)[C@H]1F", "solubility kinetic at 1 h": "> 50 µM"}
{"Item Smiles": "Cc1cc(C#N)cnc1C(=O)Nc1cccc([C@@]2(C)N=C(N)S[C@H](C)[C@@H]2F)c1", "solubility kinetic at 1 h": "47.3 µM"}
{"Item Smiles": "COc1cnc(C(=O)Nc2ccc(F)c([C@@]3(C)N=C(N)O[C@H]4[C@@H]3OCC4(F)F)c2)cn1", "solubility kinetic at 1 h": "37.6 µM"}
{"Item Smiles": "C[C@]1(c2cc(NC(=O)c3ccc(C#N)cn3)ccc2F)N=C(N)SCC12CC(F)(F)C2", "solubility kinetic at 1 h": "> 50 µM"}
{"Item Smiles": "C[C@]1(c2cc(NC(=O)c3ccc(OCF)cn3)ccc2F)N=C(N)SCC12CC(F)(F)C2", "solubility kinetic at 1 h": "> 50 µM"}
